target-system: CYP1A2 (Homo sapiens)
Sequence (P05177 whole entry): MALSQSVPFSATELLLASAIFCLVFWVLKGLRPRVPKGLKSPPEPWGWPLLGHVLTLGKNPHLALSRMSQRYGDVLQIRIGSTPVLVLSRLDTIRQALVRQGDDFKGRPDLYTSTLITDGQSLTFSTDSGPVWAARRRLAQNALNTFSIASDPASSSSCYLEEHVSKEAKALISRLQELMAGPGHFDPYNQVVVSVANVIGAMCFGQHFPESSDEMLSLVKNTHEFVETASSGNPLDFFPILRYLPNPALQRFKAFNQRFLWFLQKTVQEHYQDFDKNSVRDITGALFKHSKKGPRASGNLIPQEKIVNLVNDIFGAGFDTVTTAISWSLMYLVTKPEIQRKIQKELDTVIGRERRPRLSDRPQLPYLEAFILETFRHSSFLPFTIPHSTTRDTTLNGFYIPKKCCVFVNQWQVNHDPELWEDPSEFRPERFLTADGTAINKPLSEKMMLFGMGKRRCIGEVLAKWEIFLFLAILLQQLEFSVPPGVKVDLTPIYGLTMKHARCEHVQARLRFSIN
assay-name: Inhibition of CYP1A2 (unknown origin)
Type: ADME
readout-kind: IC50

What measured IC50 goes with `C[C@@H](N[C@H]1CCN(c2ccc(CC(=O)O)cc2)C1)c1cccc2ccccc12.Cl.Cl` ?
> 50 µM

----------
assay-name: AUC (0 to infinity) in rat at 0.3 mg/kg, iv
Assay type: ADME, organism-based
Set-up: dose 0.3 mg/kg, route intravenous, time infinity
condition-info: in vivo
readout-kind: AUC(0-inf)
Returns: string containing the number followed by the unit.

What measured AUC(0-inf) goes with `C[C@@H](N[C@H]1CCN(c2ccc(CC(=O)O)cc2)C1)c1cccc2ccccc12.Cl.Cl` ?
3010 ng·h/mL

----------
assay-name: Intrinsic clearance in rat liver microsomes assessed per protein
Assay type: ADME, microsome
condition-info: read-out: CLH
readout-kind: log10 microsomal CLint (log10 of the value in µL/min/mg)
A difference of one corresponds to tenfold microsomal CLint; all values are log10 with microsomal CLint in µL/min/mg.

What measured log10 microsomal CLint goes with `C[C@@H](N[C@H]1CCN(c2ccc(C(=O)O)cc2)C1)c1cccc2ccccc12` ?
1.96

What measured log10 microsomal CLint goes with `C[C@@H](N[C@@H]1CCN(c2cccc(OC(F)(F)F)c2)C1)c1cccc2ccccc12` ?
2.43

What measured log10 microsomal CLint goes with `C[C@@H](N[C@H]1CCN(c2ccc(-c3nn[nH]n3)cc2)C1)c1cccc2ccccc12` ?
1.62

What measured log10 microsomal CLint goes with `C[C@@H](N[C@@H]1CCCN(c2cccc(C(F)(F)F)c2)C1)c1cccc2ccccc12` ?
2.79

----------
target-system: CYP2A6 (Homo sapiens, UniProt P11509)
Sequence (P11509 whole entry): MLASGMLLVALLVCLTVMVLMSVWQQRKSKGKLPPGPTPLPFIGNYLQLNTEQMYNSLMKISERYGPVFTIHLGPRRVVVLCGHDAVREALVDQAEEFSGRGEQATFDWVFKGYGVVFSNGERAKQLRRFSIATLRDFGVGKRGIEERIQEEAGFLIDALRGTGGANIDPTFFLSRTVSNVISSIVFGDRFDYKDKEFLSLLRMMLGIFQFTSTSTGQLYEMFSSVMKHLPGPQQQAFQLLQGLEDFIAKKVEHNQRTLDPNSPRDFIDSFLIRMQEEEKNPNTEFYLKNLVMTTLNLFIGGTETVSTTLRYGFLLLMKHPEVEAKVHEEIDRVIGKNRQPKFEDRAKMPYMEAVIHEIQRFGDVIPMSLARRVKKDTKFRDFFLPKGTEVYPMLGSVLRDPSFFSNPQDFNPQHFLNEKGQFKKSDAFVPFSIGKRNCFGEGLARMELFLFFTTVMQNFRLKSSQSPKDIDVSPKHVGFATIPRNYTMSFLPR
assay-name: Inhibition of CYP2A6 (unknown origin)
Assay type: ADME
readout-kind: IC50

What measured IC50 goes with `C[C@@H](N[C@H]1CCN(c2ccc(CC(=O)O)cc2)C1)c1cccc2ccccc12.Cl.Cl` ?
> 50 µM

----------
target-system: CYP3A4/5 (Homo sapiens, UniProt P08684+P20815)
assay-name: Inhibition of CYP3A4/5 (unknown origin)
Assay type: ADME, protein assay
readout-kind: IC50

Param readout= IC50; system= CYP3A4/5 (Homo sapiens, UniProt P08684+P20815); entry= `C[C@@H](N[C@H]1CCN(c2ccc(CC(=O)O)cc2)C1)c1cccc2ccccc12.Cl.Cl` ; returns value.
> 50 µM

----------
target-system: Extracellular calcium-sensing receptor (Rattus norvegicus)
Sequence (P48442 whole entry): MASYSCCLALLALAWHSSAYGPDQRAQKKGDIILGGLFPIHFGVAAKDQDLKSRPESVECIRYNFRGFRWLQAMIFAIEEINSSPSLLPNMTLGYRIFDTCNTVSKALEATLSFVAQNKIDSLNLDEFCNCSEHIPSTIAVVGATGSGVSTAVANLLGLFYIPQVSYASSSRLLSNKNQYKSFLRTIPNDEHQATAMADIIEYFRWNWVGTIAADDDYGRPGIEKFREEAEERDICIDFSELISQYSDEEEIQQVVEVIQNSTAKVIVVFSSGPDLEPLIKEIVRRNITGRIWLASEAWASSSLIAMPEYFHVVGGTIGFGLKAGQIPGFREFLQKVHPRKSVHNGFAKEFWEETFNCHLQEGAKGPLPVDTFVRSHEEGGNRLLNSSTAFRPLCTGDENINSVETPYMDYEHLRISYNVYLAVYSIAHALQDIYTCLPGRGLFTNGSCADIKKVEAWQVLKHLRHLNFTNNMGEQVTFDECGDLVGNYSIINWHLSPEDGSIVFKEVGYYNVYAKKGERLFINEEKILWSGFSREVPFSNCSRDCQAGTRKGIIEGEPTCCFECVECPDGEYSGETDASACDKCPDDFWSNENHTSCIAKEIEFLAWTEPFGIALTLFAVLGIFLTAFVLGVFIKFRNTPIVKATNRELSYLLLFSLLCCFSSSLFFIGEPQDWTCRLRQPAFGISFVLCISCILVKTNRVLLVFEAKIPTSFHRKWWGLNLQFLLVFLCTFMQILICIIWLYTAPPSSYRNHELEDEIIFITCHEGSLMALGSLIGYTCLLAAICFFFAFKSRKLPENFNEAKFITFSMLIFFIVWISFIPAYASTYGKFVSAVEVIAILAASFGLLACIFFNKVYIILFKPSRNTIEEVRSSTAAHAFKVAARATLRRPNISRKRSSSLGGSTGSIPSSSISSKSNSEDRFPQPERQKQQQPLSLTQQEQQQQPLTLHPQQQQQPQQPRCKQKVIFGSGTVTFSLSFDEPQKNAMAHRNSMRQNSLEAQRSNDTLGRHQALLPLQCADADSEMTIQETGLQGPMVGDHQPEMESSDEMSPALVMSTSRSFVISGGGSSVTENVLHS
assay-name: Agonist activity at CaSR in rat parathyroid cells assessed as inhibition of PTH (1 to 84 residues) production in presence of Cacl2 by ELISA
readout-kind: log10 of IC50 (log10 of the value in nM)
A difference of one corresponds to tenfold IC50; all values are log10 with IC50 in nM.

What measured log10 of IC50 goes with `C[C@@H](N[C@H]1CCN(c2ccc(CC(=O)O)cc2)C1)c1cccc2ccccc12.Cl.Cl` ?
1.49

What measured log10 of IC50 goes with `C[C@@H](N[C@H]1CCCN(c2cccc(OC(F)(F)F)c2)C1)c1cccc2ccccc12` ?
1.50

What measured log10 of IC50 goes with `C[C@@H](N[C@H]1CCN(c2ccc(-c3nn[nH]n3)cc2)C1)c1cccc2ccccc12` ?
-0.33

What measured log10 of IC50 goes with `C[C@@H](N[C@@H]1CCN(c2cccc(OC(F)(F)F)c2)C1)c1cccc2ccccc12` ?
0.63

What measured log10 of IC50 goes with `C[C@@H](N[C@H]1CCN(c2cccc(OC(F)(F)F)c2)C1)c1cccc2ccccc12` ?
1.07

What measured log10 of IC50 goes with `C[C@@H](N[C@@H]1CCCN(c2cccc(C(F)(F)F)c2)C1)c1cccc2ccccc12` ?
0.32

New cases:
What measured log10 of IC50 goes with `C[C@@H](N[C@H]1CCN(c2ccc(OC(F)(F)F)cc2)C1)c1cccc2ccccc12` ?
0.89

What measured log10 of IC50 goes with `C[C@@H](N[C@H]1CCN(c2cccc(C(F)(F)F)c2)C1)c1cccc2ccccc12` ?
1.12

What measured log10 of IC50 goes with `C[C@@H](N[C@H]1CCN(c2ccc(C(=O)O)cc2)C1)c1cccc2ccccc12` ?
0.90

What measured log10 of IC50 goes with `C[C@@H](N[C@@H]1CCN(c2cccc(C(F)(F)F)c2)C1)c1cccc2ccccc12` ?
0.99

What measured log10 of IC50 goes with `C[C@@H](N[C@@H]1CCCN(c2cccc(OC(F)(F)F)c2)C1)c1cccc2ccccc12` ?
0.15

What measured log10 of IC50 goes with `C[C@@H](N[C@H]1CCN(c2ccc(C(=O)NCCO)cc2)C1)c1cccc2ccccc12` ?
-0.04

What measured log10 of IC50 goes with `C[C@@H](N[C@@H]1CCN(c2ccc(OC(F)(F)F)cc2)C1)c1cccc2ccccc12` ?
2.06

----------
target-system: Extracellular calcium-sensing receptor (Homo sapiens, UniProt P41180)
Sequence (P41180 whole entry): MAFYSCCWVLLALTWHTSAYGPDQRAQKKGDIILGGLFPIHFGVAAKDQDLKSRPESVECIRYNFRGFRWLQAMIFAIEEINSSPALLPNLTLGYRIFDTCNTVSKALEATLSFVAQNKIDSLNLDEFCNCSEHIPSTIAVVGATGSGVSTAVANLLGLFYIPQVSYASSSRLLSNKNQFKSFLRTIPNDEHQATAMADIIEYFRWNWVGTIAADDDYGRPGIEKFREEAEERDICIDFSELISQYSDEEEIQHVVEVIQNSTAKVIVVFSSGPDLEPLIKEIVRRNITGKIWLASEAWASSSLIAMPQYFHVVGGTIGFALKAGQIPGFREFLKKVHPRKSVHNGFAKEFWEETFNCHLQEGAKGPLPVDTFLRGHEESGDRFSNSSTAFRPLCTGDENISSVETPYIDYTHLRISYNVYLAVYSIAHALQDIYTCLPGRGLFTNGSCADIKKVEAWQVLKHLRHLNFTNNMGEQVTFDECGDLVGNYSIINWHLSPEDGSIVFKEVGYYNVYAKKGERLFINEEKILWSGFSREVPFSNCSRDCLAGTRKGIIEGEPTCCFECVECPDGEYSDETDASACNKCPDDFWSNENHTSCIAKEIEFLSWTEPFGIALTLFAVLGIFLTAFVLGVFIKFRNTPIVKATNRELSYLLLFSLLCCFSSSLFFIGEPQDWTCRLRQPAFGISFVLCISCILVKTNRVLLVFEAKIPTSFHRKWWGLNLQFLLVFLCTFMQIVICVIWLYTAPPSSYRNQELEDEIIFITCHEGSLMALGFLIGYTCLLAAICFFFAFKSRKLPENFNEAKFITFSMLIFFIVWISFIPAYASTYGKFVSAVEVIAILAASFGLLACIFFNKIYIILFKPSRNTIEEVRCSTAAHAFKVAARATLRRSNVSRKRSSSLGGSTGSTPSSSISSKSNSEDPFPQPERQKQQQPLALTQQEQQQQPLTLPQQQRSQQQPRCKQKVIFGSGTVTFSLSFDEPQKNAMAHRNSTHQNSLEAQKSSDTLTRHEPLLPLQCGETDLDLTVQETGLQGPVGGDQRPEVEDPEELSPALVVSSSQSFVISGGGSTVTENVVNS
assay-name: Agonist activity at human CaSR expressed in CHO cells assessed as increase in intracellular calcium mobilization after 1 hr by Fura-2 dye-based fluorescence assay
Counter-ions that a name gives are not always drawn.
Grouping rule (EC50): lo (below 200 nM), mid (200 nM to below 400 nM), hi (400 nM or more)

These recorded examples may help you get a feel for the data.
Using the reported EC50, which band applies to C[C@@H](NCCCc1cccc(C(F)(F)F)c1)c1cccc2ccccc12 [CINACALCET HYDROCHLORIDE] ?
lo

Using the reported EC50, which band applies to `C[C@@H](N[C@H]1CCCN(c2cccc(OC(F)(F)F)c2)C1)c1cccc2ccccc12` ?
hi

Using the reported EC50, which band applies to `C[C@@H](N[C@@H]1CCCN(c2cccc(C(F)(F)F)c2)C1)c1cccc2ccccc12` ?
mid

Using the reported EC50, which band applies to `C[C@@H](N[C@@H]1CCN(c2ccc(C(=O)O)cc2)C1)c1cccc2ccccc12` ?
hi

Using the reported EC50, which band applies to `C[C@@H](N[C@H]1CCN(c2ccc(C(=O)NCCO)cc2)C1)c1cccc2ccccc12` ?
lo

Using the reported EC50, which band applies to `C[C@@H](N[C@@H]1CCN(c2ccc(OC(F)(F)F)cc2)C1)c1cccc2ccccc12` ?
mid

Using the reported EC50, which band applies to `C[C@@H](N[C@H]1CCN(c2ccc(OC(F)(F)F)cc2)C1)c1cccc2ccccc12` ?
lo

Using the reported EC50, which band applies to `C[C@@H](N[C@@H]1CCN(c2cccc(C(F)(F)F)c2)C1)c1cccc2ccccc12` ?
hi

Using the reported EC50, which band applies to `C[C@@H](N[C@@H]1CCCN(c2cccc(OC(F)(F)F)c2)C1)c1cccc2ccccc12` ?
lo

Using the reported EC50, which band applies to `C[C@@H](N[C@H]1CCN(c2cccc(C(F)(F)F)c2)C1)c1cccc2ccccc12` ?
hi

New cases:
Using the reported EC50, which band applies to `C[C@@H](N[C@H]1CCN(c2ccc(-c3nn[nH]n3)cc2)C1)c1cccc2ccccc12` ?
lo

Using the reported EC50, which band applies to `C[C@@H](N[C@H]1CCN(c2cccc(OC(F)(F)F)c2)C1)c1cccc2ccccc12` ?
hi

Using the reported EC50, which band applies to `C[C@@H](N[C@H]1CCCN(c2ccc(C(=O)O)cc2)C1)c1cccc2ccccc12` ?
hi

Using the reported EC50, which band applies to `C[C@@H](N[C@@H]1CCN(c2cccc(OC(F)(F)F)c2)C1)c1cccc2ccccc12` ?
mid

Recorded values, source ChEMBL document CHEMBL4118154.
